Tested System: Peptide 5: Biotin-…-[Tyr(PC)]-acid
Sequence (peptide, as listed by the source): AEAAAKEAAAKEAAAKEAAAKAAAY
Test Description: scFv ELISA
Value Kind: OD450 (OD450)
Give bare numbers, in OD450.

Answered examples (2):
INSERT INTO assay_data (binder, value_kind, observed) VALUES
  ('PcOxP_DB01_H03 (scFv, V domains shown, scFv in periplasmic extract) VH: EVQLLESGGGLVQPGGSLRLSCAASGFTFSDHYMEWVRQAPGKGLEWVAASRGKGNSYTTAYADSVKGRFTISRDNSKNTLYLQMNSLRAEDTAVYYCARDYYGSSYWYFDVWGQGTLVTVSS VL: DIVMTQSPDSLAVSLGERATINCTASESLYSSKHKVHYLAWYQQKPGQPPKLLIYGAGNRYIGVPDRFSGSGSGTDFTLTISSLQAEDVAVYYCAQFYHYPLTFGGGTKVEIK', 'OD450', 1.29),
  ('PcOxP_DB01_G07 (scFv, V domains shown, scFv in periplasmic extract) VH: EVQLLESGGGLVQPGGSLRLSCAASGFTFSDYYMEWVRQAPGKGLEWVAASRNKYNDYTTEYADSVKGRFTISRDNSKNTLYLQMNSLRAEDTAVYYCARDYYGSSYWYFDVWGQGTLVTVSS VL: DIVMTQSPDSLAVSLGERATINCTASESLYGSKHKVHYLAWYQQKPGQPPKLLIYGASNRYIGVPDRFSGSGSGTDFTLTISSLQAEDVAVYYCAQFYSYPLTFGGGTKVEIK', 'OD450', 1.2);

Now, please, on to the next binder.
Qu. I am curious: what OD450 value has been reported for PcOxP_DB01_B08 (scFv, V domains shown, scFv in periplasmic extract) VH: EVQLLESGGGLVQPGGSLRLSCAASGFTFSDSYMEWVRQAPGKGLEWVAASRNKANDYTTSYADSVKGRFTISRDNSKNTLYLQMNSLRAEDTAVYYCARDYYGSSYWYFDVWGQGTLVTVSS VL: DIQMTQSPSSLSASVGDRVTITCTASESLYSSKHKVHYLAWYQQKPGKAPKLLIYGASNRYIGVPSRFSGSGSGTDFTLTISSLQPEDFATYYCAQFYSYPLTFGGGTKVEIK ?
Ans. 0.89
